- Test system: SF-295 CNS
- TEST SUMMARY: NCI tumour cell line growth inhibition, 48 h; in the data active = GI50 below about 0.43 µM; inactive = the rest
Log the outcome using a class from T (active), F (inactive)

1) Cc1ccc(S(=O)(=O)c2c(COC(=O)c3cccc(C)c3)c(-c3ccccc3)nn2C)cc1 | F
2) Cc1cc2c(C(C)C)c(O)c(O)cc2c(O)c1-c1c(C)cc2c(C(C)C)c(O)c(O)cc2c1O | F
3) CC1=C(c2cccc(O)c2)[C@H](c2ccc(OCCN3CC(CF)C3)cc2)Oc2ccc(O)cc21 | F

What did this assay record as the result for `COc1cc(C(=O)c2c(-c3ccccc3)oc3c(OC)cccc23)cc(OC)c1OC` ?
T

What did this assay record as the result for `CN1CCN(C(=O)C(C)(C)c2ccc(C(=O)Nc3cn4cc(-c5ccncc5)ccc4n3)cc2)CC1` ?
F

What did this assay record as the result for `COc1ccc2c(CN3CCCC[C@H]3C(=O)O)cc3cc4c(cc3c2c1)OCO4` ?
F

What did this assay record as the result for `O=C1c2cc3c(cc2[C@@H]2[C@H]1c1ccc([N+](=O)[O-])cc1C(=O)N2CCCBr)OCO3` ?
T

What did this assay record as the result for Cc1cc2c(cc1Cl)SC1=NN(C)C(C)N1S2(=O)=O (stereo not given) ?
F

What did this assay record as the result for COc1ccc2c(c1)NC1=C(C(=O)OC1)C2c1cc(OC)c2c(c1)OCO2 (stereo not given) ?
T

What did this assay record as the result for `C[C@@]12CCC(=O)c3coc(c31)C(=O)c1cc3c(cc12)C(=O)C=CC3=O` ?
F

---

- Tested on: MDA-MB-231 breast
- TEST SUMMARY: NCI tumour cell line growth inhibition, 48 h; in the data active = GI50 below about 0.43 µM; inactive = the rest
Log the outcome using a class from active, inactive

1. O=C(Nc1ccc(Br)cc1F)c1cc(I)ccc1O | inactive
2. Cc1cc2c(cc1Cl)SC1=NN(C)C(C)N1S2(=O)=O (stereo not given) | inactive
3. C=C1C(O)C2C(=C(CC)C13CC3)C(=O)C(C)(C)C2OC (stereo not given) | inactive
4. C#CC#CC#CC#CC#CC#CC#CC#CCC1OCC(COC(=O)O[C@@H](C(=O)O[C@H]2C[C@@]3(O)[C@@H](OC(=O)c4ccccc4)[C@@H]4[C@]5(OC(C)=O)CO[C@@H]5C[C@H](O)[C@@]4(C)C(=O)[C@H](OC(C)=O)C(=C2C)C3(C)C)[C@@H](NC(=O)c2ccccc2)c2ccccc2)O1 (stereo not given in full) | inactive
5. Cc1cc(NCCCN(C)C)c2ccc3c(ccc4c(NCCCN(C)C)cc(C)nc43)c2n1 | active

What did this assay record as the result for `[Cl][Sn]([c]1ccccc1)([c]1ccccc1)[c]1ccccc1` ?
active

What did this assay record as the result for `O=C1C(Nc2ccc(Cl)cc2)=C(I)C(=O)c2ncccc21` ?
inactive

---

- System: ACHN renal
- TEST SUMMARY: NCI tumour cell line growth inhibition, 48 h; in the data active means GI50 below about 0.43 µM; inactive means the rest
Log the outcome using a class from active, inactive

Below, 4 compounds whose answers are already recorded.
1) O=C1OCC2=C1C(c1cccc(Cl)c1)c1cc3c(cc1N2CCO)OCCO3 (stereo unspecified) | active
2) CC(=O)[CH-]C(=O)c1ccccc1.CC(=O)[CH-]C(=O)c1ccccc1.CC[O-].CC[O-].[Hf+4] | inactive
3) NS(=O)(=O)c1ccc(/C=C/c2ccc(F)cc2)cc1 | inactive
4) C[C@H]1CC[C@@]2(NC1)O[C@H]1C[C@H]3[C@@H]4CC[C@H]5C[C@@H](O)CC[C@]5(C)[C@H]4CC[C@]3(C)[C@H]1[C@@H]2C | inactive

What did this assay record as the result for `COc1ccc2c(CN3CCCC[C@H]3C(=O)O)cc3cc4c(cc3c2c1)OCO4` ?
inactive

What did this assay record as the result for `N#C/C(=C\c1ccsc1)c1nc2ccccc2o1` ?
inactive
